Can you tell me Selectivity ratio α1B vs α1D for the items I'm about to list?
- Target Under Test: human α1B-adrenoceptor (Homo sapiens, UniProt P35368)
- Construct: CHO cells stably expressing either the full‐length human α1A, α1B, or α1D‐adrenoceptor
- Sequence (P35368 1-520): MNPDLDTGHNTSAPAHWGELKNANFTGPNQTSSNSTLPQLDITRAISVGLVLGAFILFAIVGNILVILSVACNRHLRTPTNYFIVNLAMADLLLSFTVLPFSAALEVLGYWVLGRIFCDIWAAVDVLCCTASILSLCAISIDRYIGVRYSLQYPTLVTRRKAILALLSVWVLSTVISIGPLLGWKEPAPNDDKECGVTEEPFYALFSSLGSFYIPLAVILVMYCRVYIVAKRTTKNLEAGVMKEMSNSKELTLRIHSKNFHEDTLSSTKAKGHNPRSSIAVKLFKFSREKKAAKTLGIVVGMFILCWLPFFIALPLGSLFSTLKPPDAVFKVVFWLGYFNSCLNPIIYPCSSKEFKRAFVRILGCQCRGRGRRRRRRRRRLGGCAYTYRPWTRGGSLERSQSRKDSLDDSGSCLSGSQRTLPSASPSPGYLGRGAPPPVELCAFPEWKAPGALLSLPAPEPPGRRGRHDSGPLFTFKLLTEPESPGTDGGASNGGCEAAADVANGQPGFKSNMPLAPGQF
- Experimental Protocol: [3H]prazosin whole-cell competition binding, CHO-α1B cells
- Condition Summary: ratio of KD values; higher α1B affinity; 1.0 under vs = none
Write the value in fold as a bare number.

// Selectivity ratio α1B vs α1D lookup, key: CNCCCN1c2ccccc2CCc2ccc(Cl)cc21 [Norclomipramine]
1.0

// Selectivity ratio α1B vs α1D lookup, key: O=C1c2ccccc2CCC1CNCCc1ccc(O)cc1 (centres unmarked) [HEAT]
1.2

// Selectivity ratio α1B vs α1D lookup, key: CNCCCC1c2ccccc2C=Cc2ccccc21 [Protriptyline]
1.3

// Selectivity ratio α1B vs α1D lookup, key: O=C1Cc2cc(CCN3CCN(c4nsc5ccccc45)CC3)c(Cl)cc2N1 [Ziprasidone]
3.2

// Selectivity ratio α1B vs α1D lookup, key: CC(CN1c2ccccc2Sc2ccccc21)N(C)C (centres unmarked) [Promethazine]
2.0

* * *

- Target Under Test: human α1A-adrenoceptor (Homo sapiens, UniProt P35348)
- Construct: CHO cells stably expressing either the full‐length human α1A, α1B, or α1D‐adrenoceptor
- Sequence (P35348 1-466): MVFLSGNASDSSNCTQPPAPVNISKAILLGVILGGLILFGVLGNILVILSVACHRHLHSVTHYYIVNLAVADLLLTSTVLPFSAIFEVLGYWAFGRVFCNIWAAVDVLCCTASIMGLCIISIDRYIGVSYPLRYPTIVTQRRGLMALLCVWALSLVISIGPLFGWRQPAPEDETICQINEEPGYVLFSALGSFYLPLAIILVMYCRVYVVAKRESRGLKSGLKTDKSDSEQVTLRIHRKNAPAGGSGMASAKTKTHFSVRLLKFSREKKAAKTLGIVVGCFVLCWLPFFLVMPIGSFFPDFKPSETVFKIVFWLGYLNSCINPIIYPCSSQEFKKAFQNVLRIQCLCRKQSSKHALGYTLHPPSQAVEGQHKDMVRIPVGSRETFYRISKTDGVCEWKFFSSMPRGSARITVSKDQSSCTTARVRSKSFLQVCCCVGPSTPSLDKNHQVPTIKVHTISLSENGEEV
- Experimental Protocol: [3H]prazosin whole-cell competition binding, CHO-α1A cells
Endpoint: Kd (nM)
Write the value in nM as a bare number.

Query for human α1A-adrenoceptor (Homo sapiens, UniProt P35348): what Kd does the record show for CN1CCc2cccc(Cl)c2CC1 ?
871
